Task for the reader: assign each of the following compounds its reported pIC50.
Tested on: Non-Small Lung Cancer Cells (NSLCs)
Experiment: Trypan Blue Exclusion Test of cancer cell viability
Format: cell-based
Details: defined in text as concentration of derivative causing greater than 90% of the cells to die; read-out: Anti-Cancer Activity (Trypan Blue Exclusion Assay) IC50
API: returns pIC50 as number; meaning -log10 of concentration in mol/L.

Query the reported pIC50 for Non-Small Lung Cancer Cells (NSLCs); item: N/C(=N\O)c1cn(C2CCC(N)CC2)nn1 (centres unmarked) 3.21

Query the reported pIC50 for Non-Small Lung Cancer Cells (NSLCs); item: `NCCCn1cc(-c2nnc(C(=O)O)o2)nn1` 3.68

Query the reported pIC50 for Non-Small Lung Cancer Cells (NSLCs); item: N=C(N)c1cn(C2CCC(N)CC2)nn1 (centres unmarked) 3.17

Query the reported pIC50 for Non-Small Lung Cancer Cells (NSLCs); item: NC1CCC(n2cc(-c3n[nH]c(=O)o3)nn2)CC1 (centres unmarked) 2.87

Query the reported pIC50 for Non-Small Lung Cancer Cells (NSLCs); item: `O=c1[nH]c(-c2cn(C3CCNCC3)nn2)no1` 2.96

Query the reported pIC50 for Non-Small Lung Cancer Cells (NSLCs); item: `NCCn1cc(-c2n[nH]c(=O)o2)nn1` 3.26

Query the reported pIC50 for Non-Small Lung Cancer Cells (NSLCs); item: `NCCn1cc(/C(N)=N/O)nn1` 3.33

Query the reported pIC50 for Non-Small Lung Cancer Cells (NSLCs); item: `NCCCn1cc(C(=O)O)nn1` 3.77
